- System: phospho-STAT1SER727
- Method Summary: p-STAT1SER727 levels in SW620 cells
- Assay type: cell-based, human
- Assay Setup: Homo sapiens, SW-620, read-out: phospho-STAT1SER727 IC50
Result Type: IC50 (nM)

O=C1NCCC12CCN(c1c(Cl)cncc1-c1ccc3cccnc3c1)CC2 :: 2200

1. Cn1cc(-c2ccc(-c3cncc(Cl)c3N3CCC4(CCNC4=O)CC3)cc2)cn1
2. Cc1ccc(F)c(NC(=O)Nc2ccc(-c3cccc4[nH]nc(N)c34)cc2)c1
3. Cc1ccc(C(=O)Nc2ccc(CN3CCN(C)CC3)c(C(F)(F)F)c2)cc1C#Cc1cnc2cccnn12
IN: Arrange by IC50, high to low. // rank by listing labels in the order requested
OUT: 3, 2, 1
(3: 2800 nM, 2: 1800 nM, 1: 9 nM)
